Could you please report measured pKi for the items listed next?
# pKi: negative log10 of molar concentration; output just the value

GET pKi where system = Lethal factor protease (Bacillus anthracis, UniProt P15917) and item = Cc1cc(N[C@@H](C(=O)NO)C(C)C)cc(C)c1F [Compound 167264]
Sequence (P15917 34-809 limits assumed): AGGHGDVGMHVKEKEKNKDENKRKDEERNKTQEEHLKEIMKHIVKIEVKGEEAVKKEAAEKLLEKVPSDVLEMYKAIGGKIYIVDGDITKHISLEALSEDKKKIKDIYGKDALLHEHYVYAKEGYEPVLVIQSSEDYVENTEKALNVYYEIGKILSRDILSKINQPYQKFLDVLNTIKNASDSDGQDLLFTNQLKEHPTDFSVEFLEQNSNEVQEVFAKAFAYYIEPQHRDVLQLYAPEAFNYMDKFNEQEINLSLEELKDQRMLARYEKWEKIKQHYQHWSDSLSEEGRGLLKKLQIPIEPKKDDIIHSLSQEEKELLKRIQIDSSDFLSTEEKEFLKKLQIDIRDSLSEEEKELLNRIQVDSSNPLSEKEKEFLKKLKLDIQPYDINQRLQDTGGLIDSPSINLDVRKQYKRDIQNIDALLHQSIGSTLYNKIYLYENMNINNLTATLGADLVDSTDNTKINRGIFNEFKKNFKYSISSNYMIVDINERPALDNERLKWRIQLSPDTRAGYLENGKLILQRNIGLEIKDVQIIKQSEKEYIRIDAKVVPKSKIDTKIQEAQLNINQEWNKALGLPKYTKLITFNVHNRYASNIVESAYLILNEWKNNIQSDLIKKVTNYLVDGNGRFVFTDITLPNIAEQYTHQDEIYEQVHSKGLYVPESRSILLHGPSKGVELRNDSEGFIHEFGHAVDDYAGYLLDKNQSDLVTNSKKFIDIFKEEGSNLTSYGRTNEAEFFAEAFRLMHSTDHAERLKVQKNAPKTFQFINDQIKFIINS
5.51

GET pKi where system = Lethal factor protease (Bacillus anthracis, UniProt P15917) and item = CCCCC(Nc1ccc(C)c(F)c1C)C(=O)NO (stereo not shown) [Compound 167455]
4.06

GET pKi where system = Lethal factor protease (Bacillus anthracis, UniProt P15917) and item = CCCCC(Nc1cccc(C)c1)C(=O)NO (stereo not shown) [Compound 167170]
4.47

GET pKi where system = Lethal factor protease (Bacillus anthracis, UniProt P15917) and item = CCCCC(Nc1ccc(OC)cc1)C(=O)NO (stereo not shown) [Compound 167275]
4.06

GET pKi where system = Lethal factor protease (Bacillus anthracis, UniProt P15917) and item = CCCCC(Nc1cc(F)cc(F)c1)C(=O)NO (stereo not shown) [Compound 167807]
3.64

GET pKi where system = Lethal factor protease (Bacillus anthracis, UniProt P15917) and item = CCCCC(Nc1cccc(Cl)c1)C(=O)NO (stereo not shown) [Compound 167257]
4.21

GET pKi where system = Lethal factor protease (Bacillus anthracis, UniProt P15917) and item = CCCC[C@H](Nc1cc(C)c(F)c(C)c1)C(=O)NO [Compound 167295]
3.97

GET pKi where system = Lethal factor protease (Bacillus anthracis, UniProt P15917) and item = Cc1cc(N[C@H](CCCCNC(=O)Cc2cccc(Oc3ccccc3)c2)C(=O)NO)cc(C)c1F [Compound 167611]
6.13

GET pKi where system = Lethal factor protease (Bacillus anthracis, UniProt P15917) and item = Cc1cc(NC(C)C(=O)NO)ccc1F (stereo not shown) [Compound 167235]
5.85

GET pKi where system = Lethal factor protease (Bacillus anthracis, UniProt P15917) and item = Cc1cc(N[C@H](CC(C)C)C(=O)NO)cc(C)c1F [Compound 167402]
6.17

GET pKi where system = Lethal factor protease (Bacillus anthracis, UniProt P15917) and item = Cc1cc(N[C@H](CCCCNC(=O)c2ccccc2)C(=O)NO)cc(C)c1F [Compound 167587]
6.01

GET pKi where system = Lethal factor protease (Bacillus anthracis, UniProt P15917) and item = Cc1cc(N[C@H](COC(C)(C)C)C(=O)NO)cc(C)c1F [Compound 167484]
6.35

GET pKi where system = Lethal factor protease (Bacillus anthracis, UniProt P15917) and item = CC(=O)NCCCC[C@@H](Nc1cc(C)c(F)c(C)c1)C(=O)NO [Compound 167552]
5.60

GET pKi where system = Lethal factor protease (Bacillus anthracis, UniProt P15917) and item = CCCCC(Nc1ccc(F)c(C#N)c1)C(=O)NO (stereo not shown) [Compound 167720]
4.93

GET pKi where system = Lethal factor protease (Bacillus anthracis, UniProt P15917) and item = CCCCC(Nc1ccccc1)C(=O)NO (stereo not shown) [Compound 167210, 2-Phenylamino-hexanoic acid hydroxyamide]
3.69

GET pKi where system = Lethal factor protease (Bacillus anthracis, UniProt P15917) and item = Cc1cc(N[C@H](COCc2ccccc2)C(=O)NO)cc(C)c1F [Compound 167379]
5.84

GET pKi where system = Lethal factor protease (Bacillus anthracis, UniProt P15917) and item = Cc1cc(NC(CCCC(F)(F)F)C(=O)NO)cc(C)c1F (stereo not shown) [Compound 167483]
5.89

###

# assayed.target: Lethal factor protease (Bacillus anthracis, UniProt P15917)
pKi: −log10 of the molar value.
Mark YES for reported pKi of 6 or greater; mark NO for anything smaller.

Please tell me: is the molecule Cc1cc(NCC(=O)NO)ccc1F at or over 6 in terms of pKi?
NO

Please tell me: is the molecule Cc1cc(N[C@H](CCCCN(C)Cc2ccc(F)cc2)C(=O)NO)ccc1F at or over 6 in terms of pKi?
YES

Please tell me: is the molecule Cc1cc(N[C@H](CCCCNS(=O)(=O)c2cccc([N+](=O)[O-])c2)C(=O)NO)cc(C)c1F at or over 6 in terms of pKi?
YES

Please tell me: is the molecule CCCCC(Nc1cccc(OC)c1)C(=O)NO (stereo not drawn) at or over 6 in terms of pKi?
NO

Please tell me: is the molecule Cc1cc(N[C@H](CCCCNCc2cccc([N+](=O)[O-])c2)C(=O)NO)cc(C)c1F at or over 6 in terms of pKi?
YES

Please tell me: is the molecule Cc1cc(CN(CCCC[C@@H](Nc2cc(C)c(F)c(C)c2)C(=O)NO)Cc2ccc(F)c(C)c2)ccc1F at or over 6 in terms of pKi?
NO

Please tell me: is the molecule CCCC[C@H](Nc1ccc(F)c(C)c1)C(=O)NO at or over 6 in terms of pKi?
NO

Please tell me: is the molecule CCCCC(Nc1cccc(CC)c1)C(=O)NO (stereo not drawn) at or over 6 in terms of pKi?
NO

Please tell me: is the molecule Cc1cc(N[C@@H](C)C(=O)NO)cc(C)c1F at or over 6 in terms of pKi?
NO

Please tell me: is the molecule Cc1cc(N[C@H](CCCCNCc2cnccn2)C(=O)NO)ccc1F at or over 6 in terms of pKi?
YES

Please tell me: is the molecule Cc1cc(N[C@H](CCCCNCc2ccc(F)c(F)c2)C(=O)NO)ccc1F at or over 6 in terms of pKi?
YES

Please tell me: is the molecule Cc1cc(N[C@H](CCCCNCc2cc3ccccc3o2)C(=O)NO)ccc1F at or over 6 in terms of pKi?
YES

Please tell me: is the molecule CNc1ccc(S(=O)(=O)NCCCC[C@@H](Nc2cc(C)c(F)c(C)c2)C(=O)NO)cc1 at or over 6 in terms of pKi?
YES

Please tell me: is the molecule Cc1cc(N[C@H](CCCCN)C(=O)NO)cc(C)c1F at or over 6 in terms of pKi?
YES

Please tell me: is the molecule Cc1cc(NC(Cc2ccc(OC(F)(F)F)cc2)C(=O)NO)ccc1F (stereo not drawn) at or over 6 in terms of pKi?
NO

Please tell me: is the molecule Cc1cc(N[C@H](CCCCNCc2ccccc2)C(=O)NO)cc(C)c1F at or over 6 in terms of pKi?
YES

###

# assayed.target: UniProt:P15917
# assay.notes: biochemical
value.type: pKi
# pKi: negative log10 of molar concentration; output just the value

Consider the compound CCCCC(Nc1ccc(F)c(C)c1)C(=O)NO (centres unmarked) . State its measured pKi.
5.70

Consider the compound Cc1cc(N[C@H](CCCCNC(C)c2ccc(F)cc2)C(=O)NO)ccc1F (some centres unmarked) . State its measured pKi.
7.15

Consider the compound Cc1cc(NCC(=O)NO)cc(C)c1F . State its measured pKi.
5.40

Consider the compound Cc1cc(N[C@H](CCCCNC(=O)Cc2ccc(-n3c(C)ccc3C)cc2)C(=O)NO)cc(C)c1F . State its measured pKi.
5.84

Consider the compound CCCCC(Nc1ccc(C)cc1)C(=O)NO (centres unmarked) . State its measured pKi.
3.53

Consider the compound Cc1cc(N[C@H](CCCCNCc2ccc3sccc3c2)C(=O)NO)ccc1F . State its measured pKi.
6.82

Consider the compound Cc1cc(NC(=O)NCCCC[C@@H](Nc2cc(C)c(F)c(C)c2)C(=O)NO)ccc1F . State its measured pKi.
6.55

Consider the compound Cc1cc(COCCCC[C@@H](Nc2cc(C)c(F)c(C)c2)C(=O)NO)ccc1F . State its measured pKi.
6.15

###

Counter-ions that a name gives are not always drawn.
Could you please report measured Ki for the items listed next?
// return numeric value only (unit: nM, not printed)

GET Ki where system = Lethal factor protease (Bacillus anthracis, UniProt P15917) and item = Cc1cc(N[C@H](C)C(=O)NO)ccc1F
960

GET Ki where system = Lethal factor protease (Bacillus anthracis, UniProt P15917) and item = Cc1cc(N[C@@H](C(=O)NO)C(C)C)ccc1F [Compound 167267, hydrochloride]
15700

GET Ki where system = Lethal factor protease (Bacillus anthracis, UniProt P15917) and item = Cc1cccc(CNCCCC[C@@H](Nc2cc(C)c(F)c(C)c2)C(=O)NO)c1
160

GET Ki where system = Lethal factor protease (Bacillus anthracis, UniProt P15917) and item = CCCCC(Nc1ccc(F)c(Cl)c1)C(=O)NO (stereo not drawn)
17100

GET Ki where system = Lethal factor protease (Bacillus anthracis, UniProt P15917) and item = Cc1cc(N[C@H](CCCCN(CC2CCCCC2)CC2CCCCC2)C(=O)NO)ccc1F
16600

GET Ki where system = Lethal factor protease (Bacillus anthracis, UniProt P15917) and item = Cc1cc(N[C@H](CCCCNCc2ccccc2)C(=O)NO)ccc1F
150

GET Ki where system = Lethal factor protease (Bacillus anthracis, UniProt P15917) and item = CCCC[C@@H](Nc1ccc(F)c(C)c1)C(=O)NO
710

GET Ki where system = Lethal factor protease (Bacillus anthracis, UniProt P15917) and item = CCCCC(Nc1cc(C)cc(F)c1)C(=O)NO (stereo not drawn)
19000

GET Ki where system = Lethal factor protease (Bacillus anthracis, UniProt P15917) and item = Cc1cc(N[C@H](CCCCNS(=O)(=O)c2ccc(N(C)C)cc2)C(=O)NO)cc(C)c1F
430

GET Ki where system = Lethal factor protease (Bacillus anthracis, UniProt P15917) and item = Cc1cc(N[C@H](CCCCNCCc2ccccc2)C(=O)NO)ccc1F
210

GET Ki where system = Lethal factor protease (Bacillus anthracis, UniProt P15917) and item = Cc1cc(N[C@H](CCCCNS(=O)(=O)c2cccc(C(=O)O)c2)C(=O)NO)cc(C)c1F
1570

GET Ki where system = Lethal factor protease (Bacillus anthracis, UniProt P15917) and item = Cc1cc(N[C@H](CCCCNCc2cc(C)c(F)c(C)c2)C(=O)NO)ccc1F
100

GET Ki where system = Lethal factor protease (Bacillus anthracis, UniProt P15917) and item = Cc1cc(N[C@H](CCCCNS(=O)(=O)c2ccc(N)cc2)C(=O)NO)cc(C)c1F
610

GET Ki where system = Lethal factor protease (Bacillus anthracis, UniProt P15917) and item = Cc1cc(N[C@H](CCCCNCC2CCCCC2)C(=O)NO)ccc1F
250

GET Ki where system = Lethal factor protease (Bacillus anthracis, UniProt P15917) and item = Cc1cc(S(=O)(=O)NCCCC[C@@H](Nc2cc(C)c(F)c(C)c2)C(=O)NO)ccc1F
250

GET Ki where system = Lethal factor protease (Bacillus anthracis, UniProt P15917) and item = CCCC[C@@H](Nc1cc(C)c(F)c(C)c1)C(=O)NO
520

GET Ki where system = Lethal factor protease (Bacillus anthracis, UniProt P15917) and item = CC[C@@H](Nc1cc(C)c(F)c(C)c1)C(=O)NO
670

GET Ki where system = Lethal factor protease (Bacillus anthracis, UniProt P15917) and item = CCCCC(Nc1cc(C)cc(C)c1)C(=O)NO (stereo not drawn)
7400

Ref: patent US8242174B2
